# System: HT-22 cells
# Test method notes: HT-22 Cell Neuroprotection Assay (glutamate-induced cell death, calcein AM viability)
# Assay type: cell-based, murine
# Condition description: co-administered with 10 mM glutamate, about 16 h exposure, read-out: Steroid concentration needed to protect 50% of neurons killed by 10 mM Glutamate ED50
Result type: EC50 (nM)
A number alone suffices; assume nM.

Problem: Query EC50 on HT-22 cells for "C[C@@]12CC=C3c4ccc(O)cc4CC[C@@H]3[C@H]1CC[C@H]2O"
Solution: 530

====

# System: HT-22 cells
# Test method notes: HT-22 Cell Neuroprotection Assay (glutamate-induced cell death, calcein AM viability)
# Type: cell-based, murine
# Condition description: Mus musculus, co-administered with 10 mM glutamate, about 16 h exposure, read-out: Steroid concentration needed to protect 50% of neurons killed by 10 mM Glutamate ED50
# Protocol: Method: HT-22 Cell Neuroprotection Assay […] Cells were plated at a density of 5,000 cells/well in clear-bottomed Nunc 96-well plates (Fisher Scientific, Orlando, Fla.) and allowed to incubate overnight. […] After about 16 h of glutamate exposure, cells were rinsed with PBS, pH 7.4, and viability was assessed by the addition of 25 μM calcein AM (Molecular Probes, Inc., Eugene, Oreg.) in PBS for 15 min at room temperature. […] Cells that were lysed by addition of methanol were used for blank readings. […]
Result type: pEC50
// pEC50 is dimensionless: -log10 of concentration (M)

Problem: I have this compound here, C[C@]12CC[C@@H]3c4ccc(O)cc4CC[C@H]3[C@@H]1CCC2=O [Estrone, estrone, reference compound] , and I need its recorded pEC50.
Solution: 5.52
